# ASSAY_DETAILS: Cytotoxicity against african green monkey Vero cells assessed as cell viability at 1 uM by trypan blue exclusion assay
# Assay type: cell-based
# MEASUREMENT_CONTEXT: chlorocebus sabaeus, read-out: Activity
Give viability at 1 µM for every item shown.
Use % as the unit, but write only the number.

Which viability at 1 µM value belongs to COc1cc([C@@H]2c3cc4c(c(O)c3C[C@H]3COC(=O)[C@@H]32)OCO4)cc(OC)c1OC ?
85.4

Which viability at 1 µM value belongs to COc1cc([C@@H]2c3cc4c(c(O)c3C[C@H]3COC(=O)[C@@H]32)OCO4)cc(OC)c1O ?
91.9

Which viability at 1 µM value belongs to COc1cc([C@@H]2c3cc4c(cc3[C@H](O)[C@H]3COC(=O)[C@H]23)OCO4)cc(OC)c1OC ?
91.7

Which viability at 1 µM value belongs to COc1cc([C@@H]2c3cc4c(cc3[C@H](O)[C@H]3COC(=O)[C@@H]23)OCO4)cc(OC)c1OC ?
89.9

Which viability at 1 µM value belongs to COc1cc([C@@H]2c3cc4c(cc3C[C@H]3COC(=O)[C@@H]32)OCO4)cc(OC)c1OC ?
90.7

###

# Test system: Vero
# ASSAY_DETAILS: Cytotoxicity against african green monkey Vero cells assessed as cell rounding at 1 uM
# Assay type: cell-based
# MEASUREMENT_CONTEXT: chlorocebus sabaeus
Give Activity for every item shown.
Use % as the unit, but write only the number.

Which Activity value belongs to COc1cc([C@@H]2c3cc4c(cc3[C@H](O)[C@H]3COC(=O)[C@H]23)OCO4)cc(OC)c1OC ?
80

Which Activity value belongs to COc1cc([C@@H]2c3cc4c(c(O)c3C[C@H]3COC(=O)[C@@H]32)OCO4)cc(OC)c1O ?
5

Which Activity value belongs to COc1cc([C@@H]2c3cc4c(cc3[C@H](O)[C@H]3COC(=O)[C@@H]23)OCO4)cc(OC)c1OC ?
15

Which Activity value belongs to COc1cc([C@@H]2c3cc4c(c(O)c3C[C@H]3COC(=O)[C@@H]32)OCO4)cc(OC)c1OC ?
5

Which Activity value belongs to COc1cc([C@@H]2c3cc4c(cc3C[C@H]3COC(=O)[C@@H]32)OCO4)cc(OC)c1OC ?
30

###

# System: Measles morbillivirus
# ASSAY_DETAILS: Antiviral activity against measles virus infected in african green monkey Vero cells assessed as inhibition of virus-induced cytopathic effect at 1 uM
# Format: functional
# Set-up: scale not given: the % may be the effect or the level left
ENDPOINT: Activity (%)
Use % as the unit, but write only the number.

Which Activity value belongs to COc1cc([C@@H]2c3cc4c(cc3[C@H](O)[C@H]3COC(=O)[C@H]23)OCO4)cc(OC)c1OC ?
25

Which Activity value belongs to COc1cc([C@@H]2c3cc4c(c(O)c3C[C@H]3COC(=O)[C@@H]32)OCO4)cc(OC)c1OC ?
100

Which Activity value belongs to COc1cc([C@@H]2c3cc4c(c(O)c3C[C@H]3COC(=O)[C@@H]32)OCO4)cc(OC)c1O ?
25

Which Activity value belongs to COc1cc([C@@H]2c3cc4c(cc3[C@H](O)[C@H]3COC(=O)[C@@H]23)OCO4)cc(OC)c1OC ?
100

Which Activity value belongs to COc1cc([C@@H]2c3cc4c(cc3C[C@H]3COC(=O)[C@@H]32)OCO4)cc(OC)c1OC ?
70
